target under test: 5-HT2C (Homo sapiens)
Construct: host or cells: HEK293
Sequence (P28335 33-458, species assumed): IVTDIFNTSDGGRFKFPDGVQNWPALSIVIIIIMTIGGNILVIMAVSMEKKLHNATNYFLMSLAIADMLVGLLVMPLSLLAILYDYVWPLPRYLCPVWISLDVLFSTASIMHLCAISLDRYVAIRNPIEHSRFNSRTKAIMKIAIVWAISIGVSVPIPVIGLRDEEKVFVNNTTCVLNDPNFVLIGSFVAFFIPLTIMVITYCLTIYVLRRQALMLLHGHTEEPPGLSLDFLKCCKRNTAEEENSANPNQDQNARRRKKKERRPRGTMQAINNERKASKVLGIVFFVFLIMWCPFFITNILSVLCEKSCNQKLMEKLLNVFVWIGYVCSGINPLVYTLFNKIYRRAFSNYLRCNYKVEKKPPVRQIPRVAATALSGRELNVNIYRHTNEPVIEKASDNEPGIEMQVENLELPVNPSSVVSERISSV
test: FLIPR Ca2+ flux functional assay, 5-HT2C (HEK293)
Format: cell-based
experimental context: HEK293, agonist activity, HEK293 cells expressing 5-HT2C
Returns one of rule met or rule not met; rule met when Emax is >= 40%.

Ask: Can `CN(C)CCc1n[nH]c2c(F)cccc12` be said to have Emax at or above 40%?
Result: rule not met

Ask: Can `COc1ccc(F)c2[nH]nc(CCN3CCCC3)c12` be said to have Emax at or above 40%?
Result: rule met

Ask: Can `COc1cc2c(CCN3CC(C)C3)n[nH]c2cc1F` be said to have Emax at or above 40%?
Result: rule not met

Ask: Can COc1cc2c(CCN3CCC3C)n[nH]c2cc1F (centres unmarked) be said to have Emax at or above 40%?
Result: rule not met

Ask: Can `COc1cc(F)c2[nH]nc(CCN(C)C)c2c1` be said to have Emax at or above 40%?
Result: rule not met

---
Ask: Can `CCN(C)CCc1n[nH]c2c(F)cccc12` be said to have Emax at or above 40%?
Result: rule not met

Ask: Can `COc1cccc(CNCCc2n[nH]c3ccc(OC)cc23)c1` be said to have Emax at or above 40%?
Result: rule met
